- assay-system: T1, human EGFRvIII-hFc protein (human, UniProt P00533 25-645)
- T1 construct: extracellular domain; also called immunogen A; hFc-tagged EGFRvIII protein; not shown: human IgG Fc fragment (hFc) of the pCpC vector
- assay-name: ELISA, EGFRvIII-hFc coated
Listed next: entries and their corresponding OD450 nm at 0.0001 nM antibody.
measurement-kind: OD450 nm at 0.0001 nM antibody

1. Chimeric antibody 63A10 (antibody, human IgG1, V domains shown, also called c63A10A7; chimeric antibody c63A10A7) VH: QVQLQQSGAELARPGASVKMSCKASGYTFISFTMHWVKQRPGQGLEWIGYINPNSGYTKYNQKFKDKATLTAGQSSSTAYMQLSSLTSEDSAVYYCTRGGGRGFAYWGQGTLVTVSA VL: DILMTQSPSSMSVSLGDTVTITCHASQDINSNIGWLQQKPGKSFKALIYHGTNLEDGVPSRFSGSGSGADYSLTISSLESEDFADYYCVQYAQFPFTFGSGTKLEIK | 0.07 OD450
2. Chimeric antibody 64F1 (antibody, human IgG1, V domains shown, also called clone 64F1F8) VH: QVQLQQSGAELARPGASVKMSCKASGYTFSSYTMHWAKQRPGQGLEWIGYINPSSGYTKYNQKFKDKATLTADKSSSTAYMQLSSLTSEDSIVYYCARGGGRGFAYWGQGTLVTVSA VL: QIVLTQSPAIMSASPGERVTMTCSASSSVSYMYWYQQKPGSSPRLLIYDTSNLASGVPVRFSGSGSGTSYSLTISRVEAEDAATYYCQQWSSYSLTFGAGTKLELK | 0.08 OD450
3. Chimeric antibody 75G7 (antibody, human IgG1, V domains shown, also called c75G7C6; chimeric antibody c75G7C6) VH: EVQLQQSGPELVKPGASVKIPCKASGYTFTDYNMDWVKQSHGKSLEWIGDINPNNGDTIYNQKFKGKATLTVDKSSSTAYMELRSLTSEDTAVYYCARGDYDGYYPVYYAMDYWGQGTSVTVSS VL: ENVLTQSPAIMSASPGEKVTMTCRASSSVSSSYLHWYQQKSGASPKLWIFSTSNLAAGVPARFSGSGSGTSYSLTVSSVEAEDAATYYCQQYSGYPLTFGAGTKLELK | 0.07 OD450
4. Chimeric antibody 7E5 (antibody, human IgG1, V domains shown, also called clone 7E5-2A9) VH: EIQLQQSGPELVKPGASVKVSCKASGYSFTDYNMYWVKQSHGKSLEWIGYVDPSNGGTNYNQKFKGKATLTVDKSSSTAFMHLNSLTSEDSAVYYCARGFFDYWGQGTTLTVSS VL: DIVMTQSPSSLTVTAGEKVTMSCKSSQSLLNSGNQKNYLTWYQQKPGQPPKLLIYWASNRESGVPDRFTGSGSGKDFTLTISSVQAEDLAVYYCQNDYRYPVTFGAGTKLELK | 0.09 OD450
